Molecular target: CDK4/cyclin D1 (Homo sapiens (Human), UniProt P11802)
Sequence (P11802 whole entry): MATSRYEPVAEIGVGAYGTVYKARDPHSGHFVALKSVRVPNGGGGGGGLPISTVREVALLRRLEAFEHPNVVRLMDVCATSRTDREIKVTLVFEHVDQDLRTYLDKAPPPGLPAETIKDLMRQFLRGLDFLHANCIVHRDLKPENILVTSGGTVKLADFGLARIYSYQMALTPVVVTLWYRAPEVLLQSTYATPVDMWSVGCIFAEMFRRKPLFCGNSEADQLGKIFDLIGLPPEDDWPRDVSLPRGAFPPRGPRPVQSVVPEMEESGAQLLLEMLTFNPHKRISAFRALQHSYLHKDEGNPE
Sequence (P24385 whole entry partner): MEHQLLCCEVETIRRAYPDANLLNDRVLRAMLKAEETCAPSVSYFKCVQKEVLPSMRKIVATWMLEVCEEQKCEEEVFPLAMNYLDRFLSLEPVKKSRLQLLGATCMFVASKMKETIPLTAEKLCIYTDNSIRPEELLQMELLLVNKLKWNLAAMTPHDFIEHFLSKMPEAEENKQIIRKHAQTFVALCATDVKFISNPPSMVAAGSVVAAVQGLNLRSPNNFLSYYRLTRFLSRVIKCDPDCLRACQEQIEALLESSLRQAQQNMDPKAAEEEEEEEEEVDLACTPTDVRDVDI
Test: CDK4/Cyclin D1 enzymatic activity assay (Lance TR-FRET)
Type: biochemical
Conditions: Table 2; 3 μM ATP; read-out: CDK4
measured_quantity: IC50

| molecule | test_result |
| --- | --- |
| CN(C)C(=O)c1cc2cnc(Nc3ccc(N(C)CCO)cn3)nc2n1C1CCCC1 | 100 to 1000 nM |
| CC(CO)N1CCN(c2ccc(Nc3ncc4cc(C(=O)N(C)C)n(C5CCCC5)c4n3)nc2)CC1 (stereo not shown) | 10 to 100 nM |
| c1ncc(-c2cc3cnc(Nc4ccc(CN5CCNCC5)cn4)nc3n2C2CCCC2)o1 | 1 to 10 nM |
| CC(=O)N1CCN(Cc2ccc(Nc3ncc4cc(C(=O)N(C)C)n(C5CCCC5)c4n3)nc2)CC1 | 100 to 1000 nM |

###

pIC50 values, listed per item
Molecular target: CDK4/cyclin D1 (Homo sapiens (Human))
Experiment: CDK4/Cyclin D1 enzymatic activity assay (Lance TR-FRET)
Type: biochemical
Conditions: Table 2; 3 μM ATP; read-out: CDK4
Description: A 384-well microtiter Lance TR-FRET (time-resolved-fluorescence energy transfer) endpoint assay was used for CDK4/cyclin D1 kinase activity measurements. The same assay was used for IC50 determination of small molecule inhibitors. […] The resulted solutions were incubated at room temperature for 2 hours before read on the Evision Multilabel Reader (Perkin Elmer, Envision 2102-0010). […]
pIC50: −log10 of the molar value.
measured_quantity: pIC50

| compound | measured_quantity | test_result |
| --- | --- | --- |
| CN(C)C(=O)c1cc2cnc(Nc3ccc(N4CCC(N(C)C)CC4)cn3)nc2n1C1CCCC1 | pIC50 | 8.00 to 9.00 |
| CN(C)C(=O)c1cc2cnc(Nc3ccc(N4CCN(CCOCCO)CC4)cn3)nc2n1C1CCCC1 | pIC50 | 7.00 to 8.00 |
| CN(C)C(=O)c1cc2cnc(Nc3ccc(N4CCN(CC5CCCCC5)CC4)cn3)nc2n1C1CCCC1 | pIC50 | 7.00 to 8.00 |
| COC(=O)C(C)N1CCN(c2ccc(Nc3ncc4cc(C(=O)N(C)C)n(C5CCCC5)c4n3)nc2)CC1 (stereo not shown) | pIC50 | 6.00 to 7.00 |
| CC1CN(c2ccc(Nc3ncc4cc(C(=O)N(C)C)n(C5CCCC5)c4n3)nc2)CC(C)N1 (stereo not shown) | pIC50 | 7.00 to 8.00 |
| CN(C)C(=O)c1cc2cnc(Nc3ccc(N4CCN(C5CCCC5)CC4)cn3)nc2n1C1CCCC1 | pIC50 | 7.00 to 8.00 |
| CN(C)C(=O)c1cc2cnc(Nc3ccc(N4CCNC(C)(C)C4)cn3)nc2n1C1CCCC1 | pIC50 | 7.00 to 8.00 |
| CN(C)C(=O)c1cc2cnc(Nc3ccc(N4CCNCC4=O)cn3)nc2n1C1CCCC1 | pIC50 | 6.00 to 7.00 |
| CN(C)C(=O)c1cc2cnc(Nc3ccc(N4CCN(C(=O)CN)CC4)cn3)nc2n1C1CCCC1 | pIC50 | 7.00 to 8.00 |
| CN(C)C(=O)c1cc2cnc(Nc3ccc(CN4CCN(CCO)CC4)cn3)nc2n1C1CCCC1 | pIC50 | 7.00 to 8.00 |
| CN(C)C(=O)c1cc2cnc(Nc3ccccn3)nc2n1C1CCC(C)(O)CC1 (stereo not shown) | pIC50 | 6.00 to 7.00 |
| CN(C)C(=O)c1cc2cnc(Nc3ccc(C(=O)NC4CCNCC4)cn3)nc2n1C1CCCC1 | pIC50 | 7.00 to 8.00 |
| CN(C)C(=O)c1cc2cnc(Nc3ccc(C(=O)N(C)C4CCNCC4)cn3)nc2n1C1CCCC1 | pIC50 | 7.00 to 8.00 |
| CN(C)C(=O)c1cc2cnc(Nc3ccc(CN4CCN(S(C)(=O)=O)CC4)cn3)nc2n1C1CCCC1 | pIC50 | 6.00 to 7.00 |
| CN(C)C(=O)c1cc2cnc(Nc3ccc(N4CC(O)C4)cn3)nc2n1C1CCCC1 | pIC50 | 7.00 to 8.00 |
| CN(C)C(=O)c1cc2cnc(Nc3ccc(N4CCC(O)CC4)cn3)nc2n1C1CCCC1 | pIC50 | 7.00 to 8.00 |

###

Target: CDK4/cyclin D1 (Homo sapiens (Human), UniProt P11802)
Assay: CDK4/Cyclin D1 enzymatic activity assay (Lance TR-FRET)
Assay type: biochemical
Conditions: Table 2; 3 μM ATP; read-out: CDK4
pIC50: −log10 of the molar value.
pIC50 values, listed per item
measured_quantity: pIC50

| molecule | test_result |
| --- | --- |
| CN(C)C(=O)c1cc2cnc(Nc3ccc(N4CCN(CC(N)=O)CC4)cn3)nc2n1C1CCCC1 | 7.00 to 8.00 |
| CC(=O)N1CCN(c2ccc(Nc3ncc4cc(C(=O)N(C)C)n(C5CCCC5)c4n3)nc2)CC1 | 7.00 to 8.00 |
| CN(C)C(=O)c1cc2cnc(Nc3ccc(N4CCN(CC(C)(C)O)CC4)cn3)nc2n1C1CCCC1 | 7.00 to 8.00 |
| CN(C)C(=O)c1cc2cnc(Nc3ccc(CN4CC5CCC(C4)N5)cn3)nc2n1C1CCCC1 | 7.00 to 8.00 |
| CC(C(=O)O)N1CCN(c2ccc(Nc3ncc4cc(C(=O)N(C)C)n(C5CCCC5)c4n3)nc2)CC1 (centres unmarked) | 7.00 to 8.00 |
| CN(C)C(=O)c1cc2cnc(Nc3ccc(N4CCN(C(=O)N5CCOCC5)CC4)cn3)nc2n1C1CCCC1 | 7.00 to 8.00 |
| CN(C)C(=O)c1cc2cnc(Nc3ccc(N4CCNC(=O)C4)cn3)nc2n1C1CCCC1 | 7.00 to 8.00 |
| CN(C)C(=O)c1cc2cnc(Nc3ccc(CN4CCNCC4)cn3)nc2n1C1CCCC1 | 7.00 to 8.00 |

###

Target: CDK2/cyclin A (Homo sapiens (Human))
Assay: CDK2/Cyclin A enzymatic activity assay (IMAP-FP)
Type: biochemical
Conditions: Table 2; read-out: CDK2

| compound | IC50 |
| --- | --- |
| C[C@@H]1CN(c2ccc(Nc3ncc4cc(C(=O)N(C)C)n(C5CCCC5)c4n3)nc2)CCN1C(=O)OC(C)(C)C [Example 30] | > 15 µM |
| CN(C)C(=O)c1cc2cnc(Nc3ccc(N4CCN(C(=O)N5CCCC5)CC4)cn3)nc2n1C1CCCC1 [Example 22] | > 15 µM |
| CN(C)C(=O)c1cc2cnc(Nc3ccc(N4CCN(CCOCCO)CC4)cn3)nc2n1C1CCCC1 [Example 33] | > 15 µM |
| CC(C)N1CCN(c2ccc(Nc3ncc4cc(C(=O)N(C)C)n(C5CCCC5)c4n3)nn2)CC1 [Example 70] | > 15 µM |
| CN(C)C(=O)c1cc2cnc(Nc3ccc(N4CCNC(C)(C)C4)cn3)nc2n1C1CCCC1 [Example 72] | > 15 µM |
| CC(C)N1CCN(Cc2ccc(Nc3ncc4cc(C(=O)N(C)C)n(C5CCCC5)c4n3)nc2)CC1 [Example 62] | > 15 µM |
| COCCN1CCN(Cc2ccc(Nc3ncc4cc(C(=O)N(C)C)n(C5CCCC5)c4n3)nc2)CC1 [Example 77] | > 15 µM |
| c1ncc(-c2cc3cnc(Nc4ccc(N5CCNCC5)cn4)nc3n2C2CCCC2)o1 [Example 11] | 3.5 µM |
| C[C@H]1CN(Cc2ccc(Nc3ncc4cc(C(=O)N(C)C)n(C5CCCC5)c4n3)nc2)CCN1 [Example 55] | > 15 µM |
| CN(C)C(=O)c1cc2cnc(Nc3ccc(N4CCC(CCO)CC4)cn3)nc2n1C1CCCC1 [Example 35] | 2.9 µM |

###

Biological target: CDK4/cyclin D1 (Homo sapiens (Human), UniProt P11802)
Experiment: CDK4/Cyclin D1 enzymatic activity assay (Lance TR-FRET)
Assay type: biochemical
Conditions: Table 4; read-out: IC50 (μM) CDK4
// boundary case: IC50 equal to 0.03 µM maps to False; strictly smaller maps to True

| compound | subject_of_test | answer_label |
| --- | --- | --- |
| CN(C)C(=O)c1cc2cnc(Nc3ccc(N4CCNCC4)cc3)nc2n1C1CCCC1 [Example 200, reference compound] | CDK4/cyclin D1 (Homo sapiens (Human), UniProt P11802) | True |
| CN(C)C(=O)c1cc2cnc(Nc3ccc(N4CCN(CCO)CC4)cn3)nc2n1C1CCCC1 | CDK4/cyclin D1 (Homo sapiens (Human), UniProt P11802) | True |
| O=C(c1cc2cnc(Nc3ccc(N4CCNCC4)cc3)nc2n1C1CCCC1)N1CCC1 [Example 201, reference compound] | CDK4/cyclin D1 (Homo sapiens (Human), UniProt P11802) | False |
| CC(C)N1CCN(c2ccc(Nc3ncc4cc(C(=O)N(C)C)n(C5CCCC5)c4n3)nc2)CC1 | CDK4/cyclin D1 (Homo sapiens (Human), UniProt P11802) | True |
| Cc1c(C(=O)N(C)C)n(C2CCCC2)c2nc(Nc3ccc(N4CCNCC4)cn3)ncc12 [Example 202, reference compound] | CDK4/cyclin D1 (Homo sapiens (Human), UniProt P11802) | False |
